Molecular target: EGFR (Homo sapiens)
Construct: purchased Carna Biosciences, Inc; host or cells: insect cell expression system
Sequence (P00533 25-1210): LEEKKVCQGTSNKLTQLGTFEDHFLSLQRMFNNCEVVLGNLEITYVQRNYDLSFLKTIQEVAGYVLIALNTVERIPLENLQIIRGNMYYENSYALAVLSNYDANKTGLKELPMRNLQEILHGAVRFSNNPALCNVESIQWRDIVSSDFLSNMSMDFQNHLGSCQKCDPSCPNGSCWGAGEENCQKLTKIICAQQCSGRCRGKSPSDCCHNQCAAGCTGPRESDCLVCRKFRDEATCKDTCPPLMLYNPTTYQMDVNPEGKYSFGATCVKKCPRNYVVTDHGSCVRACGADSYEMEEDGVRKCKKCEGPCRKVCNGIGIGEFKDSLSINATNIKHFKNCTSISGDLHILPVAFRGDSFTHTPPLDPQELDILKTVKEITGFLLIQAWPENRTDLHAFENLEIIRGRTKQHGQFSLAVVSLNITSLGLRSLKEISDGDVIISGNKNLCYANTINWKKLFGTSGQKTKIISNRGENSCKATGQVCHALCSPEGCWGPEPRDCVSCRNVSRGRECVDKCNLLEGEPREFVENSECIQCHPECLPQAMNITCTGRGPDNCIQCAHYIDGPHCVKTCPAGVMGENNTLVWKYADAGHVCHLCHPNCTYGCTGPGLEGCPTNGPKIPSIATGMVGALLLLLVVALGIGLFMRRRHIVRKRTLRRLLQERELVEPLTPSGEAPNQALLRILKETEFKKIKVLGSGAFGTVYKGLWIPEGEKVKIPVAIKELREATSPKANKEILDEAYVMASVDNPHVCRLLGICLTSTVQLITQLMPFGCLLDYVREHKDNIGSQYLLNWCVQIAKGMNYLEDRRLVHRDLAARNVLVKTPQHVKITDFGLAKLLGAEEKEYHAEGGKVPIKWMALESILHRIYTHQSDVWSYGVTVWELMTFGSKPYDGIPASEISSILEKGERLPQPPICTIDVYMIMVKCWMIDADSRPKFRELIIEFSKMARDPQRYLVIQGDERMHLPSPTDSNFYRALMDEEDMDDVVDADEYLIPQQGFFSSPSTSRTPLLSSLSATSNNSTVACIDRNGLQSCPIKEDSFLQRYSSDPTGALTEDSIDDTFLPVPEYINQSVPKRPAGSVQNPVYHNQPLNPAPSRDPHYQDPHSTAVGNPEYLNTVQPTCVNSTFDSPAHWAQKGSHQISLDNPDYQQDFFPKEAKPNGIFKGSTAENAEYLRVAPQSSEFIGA
Assay: Enzyme inhibitory activity on EGFR (time resolution fluorescence, biotinylated poly-Glu-Tyr substrate)
Assay type: biochemical
Settings: EGFR purified from insect cell expression system; ATP solution 125 μM; room temperature, 60 minutes
Where a name gives a salt, the structure may show the parent alone.
property name: IC50 (nM)

I = CC#C/C(=N\OCCN)c1ccc2ncnc(Nc3ccc(OCc4cccc(F)c4)c(Cl)c3)c2c1
II = CC#C/C(=N\OCCNC1CCCCC1)c1ccc2ncnc(Nc3ccc(OCc4cccc(F)c4)c(Cl)c3)c2c1
III = CC#CC(=NOC[C@@H]1CNCCO1)c1ccc2ncnc(Nc3ccc(OCc4cccc(F)c4)c(Cl)c3)c2c1 [VIII-32, dihydrochloride]
IV = CC#C/C(=N\OCCNC1CCN(C(C)=O)CC1)c1ccc2ncnc(Nc3ccc(OCc4cccc(F)c4)c(Cl)c3)c2c1
V = CC#C/C(=N\OCCNCC(F)(F)F)c1ccc2ncnc(Nc3ccc(OCc4cccc(F)c4)c(Cl)c3)c2c1
Place the item with the largest IC50 first, then continue in falling order, using the list above. Response format: the labels, sorted as the prompt asks.
V, II, III, IV, I
(V: 301 nM, II: 162 nM, III: 50 nM, IV: 30 nM, I: 10 nM)

A = CC#C/C(=N\OC[C@@H]1CNC[C@H](C)O1)c1ccc2ncnc(Nc3ccc(OCc4cccc(F)c4)c(Cl)c3)c2c1
B = CC#C/C(=N\OC[C@@H]1CCCN1CCOC)c1ccc2ncnc(Nc3ccc(OCc4cccc(F)c4)c(Cl)c3)c2c1
Kindly identify which of A and B has the larger recorded IC50 value. Pick one and reply with its label.
B
(B: 164 nM, A: 23 nM)

I = CC#C/C(=N\OCCN(C)CCOC)c1ccc2ncnc(Nc3ccc(OCc4cccc(F)c4)c(Cl)c3)c2c1
II = CC#C/C(=N\OCCN1CCN(C)CC1)c1ccc2ncnc(Nc3ccc(OCc4cccc(F)c4)c(Cl)c3)c2c1
Field: lower IC50 | Options: I / II Pick one and reply with its label.
II
(II: 20 nM, I: 52 nM)

P = CC#CC(=NOCC1CN(C)CCN1C)c1ccc2ncnc(Nc3ccc(OCc4cccc(F)c4)c(Cl)c3)c2c1 (centres unmarked)
Q = CC#C/C(=N\OC[C@@H](COC)NC)c1ccc2ncnc(Nc3ccc(OCc4cccc(F)c4)c(Cl)c3)c2c1
R = CC#C/C(=N\OC[C@@H]1CCC(=O)N1)c1ccc2ncnc(Nc3ccc(OCc4cccc(F)c4)c(Cl)c3)c2c1
Order the items by recorded IC50; the first position goes to the largest value. Response format: the labels, sorted as the prompt asks.
R, P, Q

1 = CC#C/C(=N\OC[C@@H]1C[C@@H](O)CN1)c1ccc2ncnc(Nc3ccc(OCc4cccc(F)c4)c(Cl)c3)c2c1
2 = CC#C/C(=N\OC[C@@H]1NCCO[C@H]1C)c1ccc2ncnc(Nc3ccc(OCc4cccc(F)c4)c(Cl)c3)c2c1
Kindly identify which of 1 and 2 has the larger recorded IC50 value. Pick one and reply with its label.
2

1 = CC#CC(=NOCC(C)N)c1ccc2ncnc(Nc3ccc(OCc4cccc(F)c4)c(Cl)c3)c2c1 (centres unmarked)
2 = CC#C/C(=N\OC[C@@H]1COCCN1)c1ccc2ncnc(Nc3ccc(OCc4cccc(F)c4)c(Cl)c3)c2c1
3 = CC/C(=N\OCCNCCS(C)(=O)=O)c1ccc2ncnc(Nc3ccc(OCc4cccc(F)c4)c(Cl)c3)c2c1
4 = CC#C/C(=N\OC[C@H]1CCCN1CC(=O)OC)c1ccc2ncnc(Nc3ccc(OCc4cccc(F)c4)c(Cl)c3)c2c1
Order the items by recorded IC50; the first position goes to the largest value. Response format: the labels, sorted as the prompt asks.
4, 3, 2, 1
(4: 642 nM, 3: 89 nM, 2: 56 nM, 1: 9.3 nM)

A = CC#C/C(=N\OC1CNC1)c1ccc2ncnc(Nc3ccc(OCc4cccc(F)c4)c(Cl)c3)c2c1
B = CC#C/C(=N\OC[C@H]1CCCN1)c1ccc2ncnc(Nc3ccc(OCc4cccc(F)c4)c(Cl)c3)c2c1
C = CS(=O)(=O)CCNCCON=C(c1ccccc1)c1ccc2ncnc(Nc3ccc(OCc4cccc(F)c4)c(Cl)c3)c2c1
Order the items by recorded IC50; the first position goes to the largest value. Response format: the labels, sorted as the prompt asks.
C, B, A

1 = CC#C/C(=N\OC[C@H]1CN(CCO)CCN1)c1ccc2ncnc(Nc3ccc(OCc4cccc(F)c4)c(Cl)c3)c2c1
2 = CC/C(=N\OCCN1CCOCC1)c1ccc2ncnc(Nc3ccc(OCc4cccc(F)c4)c(Cl)c3)c2c1
3 = CC#C/C(=N\OC[C@@H]1CNC[C@@H](C)O1)c1ccc2ncnc(Nc3ccc(OCc4cccc(F)c4)c(Cl)c3)c2c1
4 = CC#C/C(=N\OCCCNC)c1ccc2ncnc(Nc3ccc(OCc4cccc(F)c4)c(Cl)c3)c2c1
Order the items by recorded IC50; the first position goes to the largest value. Response format: the labels, sorted as the prompt asks.
2, 3, 4, 1
(2: 103 nM, 3: 29 nM, 4: 16 nM, 1: 11 nM)
